- assay: Human HepG2 cell viability assay in 384 well format
- Type: toxicity, cell-based
- Design: dose 125 nL, time 70.5 hour; concentration not given beside the values
- experimentalParameters: HepG2 cells, read-out: Inhibition
assayReadout: cytotoxicity at 70.5 h (%)
The answer is to be given in %; state only the numeric part.

| molecule | cytotoxicity at 70.5 h / % |
| --- | --- |
| Cc1ccc(C(=O)N2CCC3(CCN3c3ncccn3)C2)cn1 (stereo not drawn) | -1.31 |
| Cc1nccn1[C@@H]1CC[C@@H](NC(=O)CCOc2ccccc2)[C@H]1O | 16.9 |

// switching to the query molecule
So, c1ccc(Cc2noc(CNC3CCc4ncnn4C3)n2)cc1 (stereo not drawn) ? Its cytotoxicity at 70.5 h was -5.32
